# System: HIV-1 (IIIB strain)
# Type: cell-based
# Reported Conditions: selectivity index (CC50/EC50)
# SI annotations
Quantity Name: SI

- CCC(C)Sc1nc(Cc2ccc(F)cc2)cc(=O)[nH]1 (stereo not shown) [MC 889]: 23
- CC1CCC(C)C(Oc2nc(Cc3ccccc3)cc(=O)[nH]2)C1 (stereo not shown) [MC 507]: 40
- CC(C)Sc1nc(C(C)c2c(Cl)cccc2Cl)cc(=O)[nH]1 (stereo not shown) [MC 1001]: 97.5
- CCC(C)Sc1nc(Cc2ccccc2C(F)(F)F)cc(=O)[nH]1 (stereo not shown) [MC 868]: 6.2
- CCCCSc1nc(Cc2c(F)cccc2F)cc(=O)[nH]1 [MC 872]: 900

----------
# CC50 annotations
# Tested on: mock-infected MT-4 cells
# Measurement Protocol: Cytotoxicity: viability of mock-infected cells by the MTT method
# Format: cell-based, human
# Description: Cells and viruses. MT-4, C8166,H9/IIIB and CEM cells were grown at 37° C. in a 5% CO2 atmosphere in RPMI 1640 medium, supplemented with 10% fetal calf serum (FCS), 100 IU/mL penicillin and 100 μg/mL streptomycin. […] Anti-HIV Assays. […] After a 4-day incubation at 37° C., the number of viable cells was determined by the 3-(4,5-dimethylthiazol-[…])-2,5-diphenyltetrazolium bromide (MTT) method. Cytotoxicity of the compounds was evaluated in parallel with their antiviral activity. […]
Quantity Name: CC50

* CCC(C)Sc1nc(Cc2ccccc2C)cc(=O)[nH]1 (stereo not shown) [MC 806] | > 200 µM
* CCC(C)Sc1nc(Cc2cccc(OC)c2)cc(=O)[nH]1 (stereo not shown) [MC 957] | > 200 µM
* CCCCSc1nc(Cc2c(Cl)cccc2Cl)c(C)c(=O)[nH]1 [MC 920] | > 200 µM
* CCc1c(Cc2c(F)cccc2F)nc(SC(C)C)[nH]c1=O [MC 1037] | 65 µM
* O=c1cc(Cc2c(F)cccc2F)nc(OC2CCCC2)[nH]1 [MC 1103] | > 200 µM
* CC(c1cc(=O)[nH]c(SC2CCCCC2)n1)c1c(F)cccc1F (stereo not shown) [MC 1013] | > 200 µM
* CCc1c(Cc2c(F)cccc2F)nc(SC(C)CC)[nH]c1=O (stereo not shown) [MC 1038] | > 200 µM
* CCC(c1cc(=O)[nH]c(SC(C)C)n1)c1c(F)cccc1F (stereo not shown) [MC 1005] | 70 µM
* CC(c1cc(=O)[nH]c(SC2CCCCC2)n1)c1c(Cl)cccc1Cl (stereo not shown) [MC 1016] | > 200 µM
* Cc1c(C(C)c2c(F)cccc2F)nc(NC2CCCC2)[nH]c1=O (stereo not shown) [MC1129] | 90 µM

----------
# Test system: HIV-1 (IIIB strain)
# Assay type: cell-based
# Reported Conditions: anti-HIV-1 activity, HIV-1-infected MT-4 cells
pEC50: −log10 of the molar value.
Please use Yes whenever pEC50 is not below 7, and No whenever it is.

• CCC(C)Sc1nc(Cc2cccc(Cl)c2)c(C)c(=O)[nH]1 (centres unmarked) = No
• CCCCSc1nc(Cc2c(Cl)cccc2Cl)c(C)c(=O)[nH]1 = No
• Cc1c(Cc2c(F)cccc2F)nc(NCc2ccccc2)[nH]c1=O = No
• Cc1c(C(C)c2c(F)cccc2F)nc(NC2CCCC2)[nH]c1=O (centres unmarked) = Yes
• CCC(c1cc(=O)[nH]c(SC2CCCCC2)n1)c1cccc2ccccc12 (centres unmarked) = No
• Cc1ccccc1Cc1cc(=O)[nH]c(SC2CCCC2)n1 = No
